- tgt: TDP-43s short-form TDP-43 (RRM1-RRM2) (Mus musculus, UniProt Q921F2 Q921F2:101-265)
- assay-summary: intrinsic fluorescence titration (ex 280, em 350 nm), 1.5 uM protein, 30 mM Tris-HCl pH 8
- run-conditions: tags: prepared per Kuo et al 2009
pKd values by entry
API: returns pKd as number; meaning -log10 of concentration in mol/L.

INPUT: Assign pKd to the following record: TGGGTCTCTCTG (ssDNA) [TAR DNA B-site]
OUTPUT: 6.42

INPUT: Consider the binder CTTTTTGCCTGT (ssDNA) [TAR DNA A-site] . State its measured pKd.
OUTPUT: 6.70
